// provenance: patent US10206394B2

Test system: Lolium perenne (LOLPE)
experimental_details: Glasshouse assay for herbicidal activity (pre- and post-emergence), percentage phytotoxicity
Format: in vivo
experimental_setup: Lolium perenne, pre-emergence, 480 h, PRE-emergence, rate 250 g/ha, visual score 20 DAA (100%=total damage, 0%=no damage); read-out: Pre-emergence herbicidal activity (percentage phytotoxicity) LOLPE PRE
measurement_type: pest or weed control at 250 g/ha (%)
Your answer should be a plain number; it is taken to be in %.

*Q* Look up pest or weed control at 250 g/ha for this compound: C=CCNC(=O)CC1CC(=O)C(c2c(C)cc(/C=C/C)cc2C)C1=O (stereo not drawn)
*A* 90

*Q* Would you mind telling me what pest or weed control at 250 g/ha value was observed for C#CCN(C)C(=O)CC1CC(=O)C(c2c(C)cc(-n3cc(Cl)cn3)cc2C)C1=O (stereo not drawn) ?
*A* 90

*Q* Quick one: pest or weed control at 250 g/ha of Cc1cc(OCC(F)(F)F)cc(C)c1C1C(=O)CC(CC(=O)NCc2cccc(F)c2)C1=O (stereo not drawn) ?
*A* 90

*Q* Recorded pest or weed control at 250 g/ha for C/C=C/c1cc(C)c(C2C(=O)CC(CC(=O)NCC3CC3)C2=O)c(C)c1 (stereo not drawn) , please?
*A* 80

*Q* Which measured pest or weed control at 250 g/ha value corresponds to C#CCN(C)C(=O)CC1CC(=O)C(c2c(C)cc(-n3cc(Cl)cn3)cc2CC)C1=O (stereo not drawn) ?
*A* 90

API: the following record is the query input.
*Q* Any idea what its pest or weed control at 250 g/ha is? The compound is C=CCNC(=O)CC1CC(=O)C(c2c(C)cc(C)cc2CC)C1=O (stereo not drawn)
*A* 100
